- Assay info: MTT cytotoxicity assay, HGF
- Assay type: cell-based, human
- Condition notes: human, human gingival fibroblasts (HGF), normal oral cells, average of three determinations
# 1 = CC50 at 48 h below 200 µM (exclusive); -1 = CC50 at 48 h at/above 200 µM

Task item: Does this compound meet the criterion CC50 at 48 h < 200 µM? CN(C)C=NS(=O)(=O)c1ccc(-n2cc(C=O)c(-c3ccccc3)n2)cc1 [MS2]
Reply: -1

Task item: Repeat with COc1cc(OC)c(C(=O)/C=C/c2cn(-c3ccc(S(N)(=O)=O)cc3)nc2-c2ccccc2)cc1OC [MS7]
Reply: -1

Task item: Follow-up item: NS(=O)(=O)c1ccc(-n2cc(C=O)c(-c3ccccc3)n2)cc1 [MS3]
Reply: -1

Task item: For Cc1ccc(C(=O)/C=C/c2cn(-c3ccc(S(N)(=O)=O)cc3)nc2-c2ccccc2)cc1 [MS5] then?
Reply: 1

Task item: For COc1cc(C(=O)/C=C/c2cn(-c3ccc(S(N)(=O)=O)cc3)nc2-c2ccccc2)cc(OC)c1OC [MS8] then?
Reply: -1

Task item: Check NS(=O)(=O)c1ccc(-n2cc(/C=C/C(=O)c3cccs3)c(-c3ccccc3)n2)cc1 [MS10] too.
Reply: 1

Task item: Now the same for COc1ccc(C(=O)/C=C/c2cn(-c3ccc(S(N)(=O)=O)cc3)nc2-c2ccccc2)cc1 [MS6]
Reply: -1

Task item: Thanks! And COc1ccc(C(=O)/C=C/c2cn(-c3ccc(S(N)(=O)=O)cc3)nc2-c2ccccc2)cc1OC [MS9] ?
Reply: -1

Task item: Next compound: C/C(=N\Nc1ccc(S(N)(=O)=O)cc1)c1ccccc1 [MS1]
Reply: 1

====

- Assay info: MTT cytotoxicity, three normal oral cell types together (mean)
- Format: cell-based, human
- Condition notes: female, human; mean of HGF, HPLF, HPC; read-out: CC50 normal oral cells mean (D)
- Description: Estimation of CC50 values. […] The mean pCC50 values for normal cells and tumor cell lines were defined as N and T, respectively.
Quantity name: CC50 at 48 h (µM)
Report as a plain number; the unit µM is understood.

Task item: Look up CC50 at 48 h for this molecule: "NS(=O)(=O)c1ccc(-n2cc(C=O)c(-c3ccccc3)n2)cc1"
Reply: 230

Task item: Please do the same for "CN(C)C=NS(=O)(=O)c1ccc(-n2cc(C=O)c(-c3ccccc3)n2)cc1" as well.
Reply: 241

Task item: Next entry: "C/C(=N\Nc1ccc(S(N)(=O)=O)cc1)c1ccccc1"
Reply: 116

Task item: Note, next up: "COc1ccc(C(=O)/C=C/c2cn(-c3ccc(S(N)(=O)=O)cc3)nc2-c2ccccc2)cc1"
Reply: 120

Task item: And for "NS(=O)(=O)c1ccc(-n2cc(/C=C/C(=O)c3cccs3)c(-c3ccccc3)n2)cc1" ?
Reply: 48

====

- Assay info: MTT cytotoxicity assay, HPLF
- Format: cell-based, human
- Condition notes: female, human, normal oral cells, average of three determinations
Record form. Attribute: CC50 at 48 h. Fill in for each entry.
Reply with just the number (in µM).

Task item: Name the recorded CC50 at 48 h for "NS(=O)(=O)c1ccc(-n2cc(/C=C/C(=O)c3cccs3)c(-c3ccccc3)n2)cc1" .
Reply: 121

Task item: Now give it for "C/C(=N\Nc1ccc(S(N)(=O)=O)cc1)c1ccccc1" too.
Reply: 246

Task item: And "CN(C)C=NS(=O)(=O)c1ccc(-n2cc(C=O)c(-c3ccccc3)n2)cc1" ?
Reply: 262

Task item: Now the molecule "NS(=O)(=O)c1ccc(-n2cc(C=O)c(-c3ccccc3)n2)cc1"
Reply: 217

Task item: What do we get for "COc1ccc(C(=O)/C=C/c2cn(-c3ccc(S(N)(=O)=O)cc3)nc2-c2ccccc2)cc1" ?
Reply: 99.7

Task item: Next record, please: "COc1cc(C(=O)/C=C/c2cn(-c3ccc(S(N)(=O)=O)cc3)nc2-c2ccccc2)cc(OC)c1OC"
Reply: 340

====

- Test system: HSC-3 cells (OSCC, tongue)
- Assay info: MTT cytotoxicity assay, HSC-3
- Format: cell-based, human
- Condition notes: Homo sapiens, HSC-3; OSCC, 48 h, MTT, average of three determinations
Quantity name: log10 CC50 (log10 of the value in µM)
Please be aware that the numbers have been log10-transformed from CC50 in µM.

Task item: Please give the measured log10 CC50 for this compound: COc1ccc(C(=O)/C=C/c2cn(-c3ccc(S(N)(=O)=O)cc3)nc2-c2ccccc2)cc1 [MS6]
Reply: 0.56

Task item: Cool, now COc1cc(OC)c(C(=O)/C=C/c2cn(-c3ccc(S(N)(=O)=O)cc3)nc2-c2ccccc2)cc1OC [MS7]
Reply: 0.52

Task item: COc1ccc(C(=O)/C=C/c2cn(-c3ccc(S(N)(=O)=O)cc3)nc2-c2ccccc2)cc1OC [MS9] , same question.
Reply: 1.54

Task item: Next compound up: C/C(=N\Nc1ccc(S(N)(=O)=O)cc1)c1ccccc1 [MS1]
Reply: 1.73

Task item: What about NS(=O)(=O)c1ccc(-n2cc(/C=C/C(=O)c3cccs3)c(-c3ccccc3)n2)cc1 [MS10] ?
Reply: 0.67

Task item: Note, next up: Cc1ccc(C(=O)/C=C/c2cn(-c3ccc(S(N)(=O)=O)cc3)nc2-c2ccccc2)cc1 [MS5]
Reply: 1.54

Task item: Query NS(=O)(=O)c1ccc(-n2cc(C=O)c(-c3ccccc3)n2)cc1 [MS3] next
Reply: 1.71

Task item: Now this one: COc1cccc2c1C(=O)c1c(O)c3c(c(O)c1C2=O)C[C@@](O)(C(=O)CO)C[C@@H]3O[C@H]1C[C@H](N)[C@H](O)[C@H](C)O1 [DXR, doxorubicin, reference compound]
Reply: -0.54

Task item: Another compound: COc1cc(C(=O)/C=C/c2cn(-c3ccc(S(N)(=O)=O)cc3)nc2-c2ccccc2)cc(OC)c1OC [MS8]
Reply: 0.60

Task item: Okay, and CN(C)C=NS(=O)(=O)c1ccc(-n2cc(C=O)c(-c3ccccc3)n2)cc1 [MS2] ?
Reply: 1.87

====

- Test system: human OSCC cell lines (Ca9-22, HSC-2, HSC-3, HSC-4)
- Assay info: MTT cytotoxicity, four OSCC cell lines together (mean, TS, PSE, type of growth inhibition)
- Format: cell-based
- Condition notes: mean of Ca9-22, HSC-2, HSC-3, HSC-4; read-out: CC50 OSCC mean (B)
Quantity name: CC50 (µM)
Report the figure in µM without appending any unit label.

Task item: So what CC50 did "NS(=O)(=O)c1ccc(-n2cc(/C=C/C(=O)c3ccccc3)c(-c3ccccc3)n2)cc1" get with human OSCC cell lines (Ca9-22, HSC-2, HSC-3, HSC-4)?
Reply: 3.7

====

- System: HSC-4 cells (OSCC, tongue)
- Assay info: MTT cytotoxicity assay, HSC-4
- Type: cell-based, human
- Condition notes: Homo sapiens, HSC-4, 48 h, average of three determinations
Could you mark each record y if its CC50 falls strictly under 50 µM, and n if it equals or exceeds it?

Task item: Criterion: CC50 strictly below 50 µM. Is it met by CN(C)C=NS(=O)(=O)c1ccc(-n2cc(C=O)c(-c3ccccc3)n2)cc1 [MS2] ?
Reply: n

Task item: Then COc1cc(C(=O)/C=C/c2cn(-c3ccc(S(N)(=O)=O)cc3)nc2-c2ccccc2)cc(OC)c1OC [MS8] ?
Reply: y

Task item: And then NS(=O)(=O)c1ccc(-n2cc(C=O)c(-c3ccccc3)n2)cc1 [MS3] , what is it?
Reply: y

Task item: Same question, COc1ccc(C(=O)/C=C/c2cn(-c3ccc(S(N)(=O)=O)cc3)nc2-c2ccccc2)cc1 [MS6] this time
Reply: y

Task item: Moving on to the next compound: COc1cccc2c1C(=O)c1c(O)c3c(c(O)c1C2=O)C[C@@](O)(C(=O)CO)C[C@@H]3O[C@H]1C[C@H](N)[C@H](O)[C@H](C)O1 [DXR, doxorubicin, reference compound]
Reply: y

====

- Tested on: human normal oral cells (HGF, HPLF, HPC)
- Assay info: MTT cytotoxicity, three normal oral cell types together (mean)
- Format: cell-based
- Condition notes: mean of HGF, read-out: CC50 normal oral cells mean (D)
Quantity name: CC50

Task item: # query: CC50 of entry NS(=O)(=O)c1ccc(-n2cc(/C=C/C(=O)c3ccccc3)c(-c3ccccc3)n2)cc1 [MS4]
Reply: > 384 µM

====

- System: Ca9-22 cells (OSCC, gingival tissue)
- Assay info: MTT cytotoxicity assay, Ca9-22
- Assay type: cell-based, human
- Condition notes: OSCC, 48 h, MTT, average of three determinations
Quantity name: CC50 (µM)
// units = µM; emit number, no label

Task item: For the molecule NS(=O)(=O)c1ccc(-n2cc(/C=C/C(=O)c3ccccc3)c(-c3ccccc3)n2)cc1 [MS4] , what CC50 is on record?
Reply: 4.9
